- Test Target: human p38 kinase alpha (Homo sapiens)
- Construct: GST (N, cleaved yes); made in house; host or cells: E. coli DH10B
- Sequence (Q16539 whole entry): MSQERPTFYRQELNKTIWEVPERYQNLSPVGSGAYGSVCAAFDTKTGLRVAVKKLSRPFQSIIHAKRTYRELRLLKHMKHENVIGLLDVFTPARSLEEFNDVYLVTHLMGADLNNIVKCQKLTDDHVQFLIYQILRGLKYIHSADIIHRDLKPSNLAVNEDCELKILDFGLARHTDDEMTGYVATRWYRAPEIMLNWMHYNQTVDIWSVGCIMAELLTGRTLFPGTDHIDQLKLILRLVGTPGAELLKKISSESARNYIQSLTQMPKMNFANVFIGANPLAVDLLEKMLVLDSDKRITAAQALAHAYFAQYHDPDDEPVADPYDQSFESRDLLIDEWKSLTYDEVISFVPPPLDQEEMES
- Run Description: p38 kinase in vitro assay, phosphorylation of biotinylated PHAS-I with 32P-ATP
- Assay type: biochemical
- Details: @ 1.0 uM
Experimental Endpoint: P38 alpha kinase % inhib @ conc. (% @)
Numbers only here, please. The scale is % @.

Consider the reported P38 alpha kinase % inhib @ conc. for these molecules:
Look up P38 alpha kinase % inhib @ conc. for this molecule: "O=C(Cc1cccs1)NCCCc1[nH]nc(-c2ccc(F)cc2)c1-c1ccncc1"
90.0

# iterate: "O=S(=O)(NCc1[nH]nc(-c2ccc(F)cc2)c1-c1ccncc1)c1ccc(OC(F)F)cc1"
42.0

What would you report for "C=CCNC(=O)NCCCc1[nH]nc(-c2ccc(F)cc2)c1-c1ccncc1" ?
87.0

Now let's try a different one.
Given the entry "CS(=O)(=O)NCCCc1[nH]nc(-c2ccc(F)cc2)c1-c1ccncc1" , report its measured P38 alpha kinase % inhib @ conc..
84.0

====

- Test Target: human p38 kinase alpha (Homo sapiens)
- Construct: GST (N, cleaved yes); made in house; host or cells: E. coli DH10B
- Run Description: p38 kinase in vitro assay, phosphorylation of biotinylated PHAS-I with 32P-ATP
- Assay type: biochemical
- Details: in vitro P38-alpha kinase inhibition; read-out: P38 alpha kinase IC50
Experimental Endpoint: pIC50
# pIC50: negative log10 of molar concentration; output just the value

Which pIC50 reading was recorded for the compound C=CCNC(=O)NC(Cc1ccccc1)c1[nH]nc(-c2ccc(F)cc2)c1-c1ccncc1 (stereo not shown) [Example B-0734] ?
6.04

Query O=C(NC(Cc1ccccc1)c1[nH]nc(-c2ccc(F)cc2)c1-c1ccncc1)c1ccccc1C(F)(F)F (stereo not shown) [Example B-0812] next
5.67

Next record, please: O=S(=O)(NC(Cc1ccccc1)c1[nH]nc(-c2ccc(F)cc2)c1-c1ccncc1)c1ccc(F)cc1F (stereo not shown) [Example B-0757]
6.27

Would you kindly repeat that for O=S(=O)(NCCc1[nH]nc(-c2ccc(F)cc2)c1-c1ccncc1)c1cc(Cl)c(Cl)s1 [Example B-1080] ?
6.72

Another: CC(NS(=O)(=O)c1cccc2ccccc12)c1[nH]nc(-c2ccc(F)cc2)c1-c1ccncc1 (stereo not shown) [Example B-0618]
6.43

Same question, CC(NC(=O)c1cc2ccccc2s1)c1[nH]nc(-c2ccc(F)cc2)c1-c1ccncc1 (stereo not shown) [Example B-0673] this time
5.07

====

Reported IC50 values are given for each entry in this list.
- Test Target: human p38 kinase alpha (Homo sapiens)
- Construct: GST (N, cleaved yes); made in house; host or cells: E. coli DH10B
- Run Description: p38 kinase in vitro assay, phosphorylation of biotinylated PHAS-I with 32P-ATP
- Format: biochemical
- Details: in vitro P38-alpha kinase inhibition; read-out: P38 alpha kinase IC50
Answer with a number only, understood to be in nM.

Known IC50 results, listed for orientation:
Which IC50 value is on record for CC(NS(=O)(=O)c1ccc(C#N)cc1)c1[nH]nc(-c2ccc(F)cc2)c1-c1ccncc1 (stereo not shown) [Example B-0656] ?
7

Same question, O=C(NCCc1[nH]nc(-c2ccc(F)cc2)c1-c1ccncc1)c1c(F)ccc(F)c1F [Example B-1131] this time
76

Shifting focus to the compound that follows.
Can you share its IC50? I mean this compound: CNC(=O)CCC(NC(=O)Nc1ccccc1F)c1[nH]nc(-c2ccc(F)cc2)c1-c1ccncc1 (stereo not shown) [Example B-0881]
1360
